- System: KB tumor-bearing athymic nude mice
- Test name: Biodistribution of 177Lu-RedFols in KB tumor-bearing mice
- Type: in vivo, mouse
- Condition notes: 1 h p.i.
Listed below: Tumor-to-liver ratio values for each entry.

| Compound | Tumor-to-liver ratio |
| --- | --- |
| CN1c2c(nc(N)[nH]c2=O)NCC1CNc1ccc(C(=O)NC(CCC(=O)NC(CCCCNC(=O)CN2CCN(CC(=O)[O-])CCN(CC(=O)[O-])CCN(CC(=O)[O-])CC2)C(=O)NC(CCCCNC(=O)c2ccc(CNC(=O)CCCCc3ccc(I)cc3)cc2)C(=O)O)C(=O)O)cc1.[177Lu+3] (stereo not drawn) [[^177Lu]Lu-6S-RedFol-25] | 7.4 |
| CN1c2c(nc(N)[nH]c2=O)NCC1CNc1ccc(C(=O)NC(CCC(=O)NC(CCCCNC(=O)CN2CCN(CC(=O)[O-])CCN(CC(=O)[O-])CCN(CC(=O)[O-])CC2)C(=O)NC(CCCCNC(=O)c2ccc(CNC(=O)CCCc3ccc(I)cc3)cc2)C(=O)O)C(=O)O)cc1.[177Lu+3] (stereo not drawn) [[^177Lu]Lu-6S-RedFol-3] | 2.1 |
| CN1c2c(nc(N)[nH]c2=O)NC[C@H]1CNc1ccc(C(=O)N[C@@H](CCC(=O)N[C@@H](CCCCNC(=O)CN2CCN(CC(=O)O)CCN(CC(=O)O)CCN(CC(=O)O)CC2)C(=O)N[C@@H](CCCCNC(=O)c2ccc(CNC(=O)CCCc3ccc(I)cc3)cc2)C(=O)O)C(=O)O)cc1 [[^177Lu]Lu-6R-RedFol-3, metal not drawn] | 2.3 |
| CN1c2c(nc(N)[nH]c2=O)NC[C@H]1CNc1ccc(C(=O)N[C@@H](CCC(=O)N[C@@H](CCCCNC(=O)CN2CCN(CC(=O)O)CCN(CC(=O)O)CCN(CC(=O)O)CC2)C(=O)N[C@@H](CCCCNC(=O)c2ccc(CNC(=O)CCCCc3ccc(I)cc3)cc2)C(=O)O)C(=O)O)cc1 [[^177Lu]Lu-6R-RedFol-25, metal not drawn] | 6.8 |
| CN1c2c(nc(N)[nH]c2=O)NC[C@H]1CNc1ccc(C(=O)N[C@@H](CCC(=O)N[C@@H](CCCCNC(=O)CN2CCN(CC(=O)O)CCN(CC(=O)O)CCN(CC(=O)O)CC2)C(=O)N[C@@H](CCCCNC(=O)CCCCc2ccc(I)cc2)C(=O)O)C(=O)O)cc1 [[^177Lu]Lu-6R-RedFol-24, metal not drawn] | 6.9 |

Measured values drawn from paper PMC10486429 for this set.
